- assayed-system: human MR (full-length) (Homo sapiens, UniProt P08235)
- Construct: expression vectors encoding full-length steroid receptors: pcDNA3-hAR, pcDNA3-hGR and pcDNA3-hMR; expressed in transfected cells; host or cells: U2OS
- Sequence (P08235 whole entry): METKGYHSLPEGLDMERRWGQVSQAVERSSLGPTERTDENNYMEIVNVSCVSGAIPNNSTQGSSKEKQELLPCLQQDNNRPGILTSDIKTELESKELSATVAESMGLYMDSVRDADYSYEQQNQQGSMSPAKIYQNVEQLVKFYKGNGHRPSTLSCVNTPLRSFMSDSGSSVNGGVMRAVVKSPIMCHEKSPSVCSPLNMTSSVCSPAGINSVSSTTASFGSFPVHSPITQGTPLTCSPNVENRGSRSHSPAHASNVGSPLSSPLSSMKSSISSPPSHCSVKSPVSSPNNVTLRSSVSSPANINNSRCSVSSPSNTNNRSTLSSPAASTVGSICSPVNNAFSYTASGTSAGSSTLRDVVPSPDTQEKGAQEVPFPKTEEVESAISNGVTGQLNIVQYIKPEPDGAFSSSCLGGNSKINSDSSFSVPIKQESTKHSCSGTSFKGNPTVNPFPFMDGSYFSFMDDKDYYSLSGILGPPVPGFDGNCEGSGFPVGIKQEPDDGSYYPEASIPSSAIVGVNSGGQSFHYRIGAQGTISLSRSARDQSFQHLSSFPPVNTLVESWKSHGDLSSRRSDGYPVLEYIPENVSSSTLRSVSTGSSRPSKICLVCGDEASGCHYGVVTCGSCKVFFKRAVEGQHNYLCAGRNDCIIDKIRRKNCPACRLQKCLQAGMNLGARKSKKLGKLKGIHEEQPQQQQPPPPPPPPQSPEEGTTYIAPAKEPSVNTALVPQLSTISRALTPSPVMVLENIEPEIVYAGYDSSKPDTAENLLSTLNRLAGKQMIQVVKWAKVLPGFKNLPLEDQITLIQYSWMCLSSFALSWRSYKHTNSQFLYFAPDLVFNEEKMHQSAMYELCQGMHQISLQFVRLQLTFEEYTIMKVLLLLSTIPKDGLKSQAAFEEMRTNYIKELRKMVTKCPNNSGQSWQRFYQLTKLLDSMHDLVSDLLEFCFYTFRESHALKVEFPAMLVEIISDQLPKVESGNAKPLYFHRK
- test-method-notes: U2OS-MR/MMTV luciferase reporter cell line (full-length receptor)
- Assay type: cell-based
- setup-conditions: read-out: Log EC50 (converted)
quantity-name: EC50

compound="CCC(=O)[C@@]1(C)CC[C@H]2[C@@H]3CCC4=CC(=O)CCC4=C3CC[C@@]21C [Promegestone (R5020), promegestone]" observed_measurement="> 10 µM"
compound=C[C@]12C[C@H](O)[C@H]3[C@@H](CCC4=CC(=O)CC[C@@]43C)[C@@H]1CC[C@@H]2C(=O)CO observed_measurement="8.13e-05 µM"
compound="CC(=O)O[C@]1(C(C)=O)CC[C@H]2[C@@H]3C=C(Cl)C4=CC(=O)[C@@H]5C[C@@H]5[C@]4(C)[C@H]3CC[C@@]21C [Cyproterone acetate, cyproterone acetate]" observed_measurement="> 10 µM"
compound=C#C[C@]1(O)CC[C@H]2[C@@H]3CCC4=Cc5oncc5C[C@]4(C)[C@H]3CC[C@@]21C observed_measurement="> 10 µM"

Consider the additional compound presented here.
Using the record for CC(C)C(=O)Nc1ccc([N+](=O)[O-])c(C(F)(F)F)c1 [Flutamide, flutamide] , report its EC50.
> 10 µM

###

EC50 by entry:
- assayed-system: GR-LBD fused to Gal4-DBD (Homo sapiens, UniProt P04150)
- Construct: expressed in transfected cells; host or cells: U2OS
- test-method-notes: U2OS-GR-LBD/9xGal4UAS luciferase reporter cell line
- Type: cell-based
- setup-conditions: read-out: Log EC50 (converted)
Counter-ions that a name gives are not always drawn.

Solved cases (5 shown):
molecule="CCCc1c(-c2ccc(O)cc2)nn(-c2ccc(O)cc2)c1-c1ccc(O)cc1 [PPT, propyl pyrazole triol]" quantity_name=EC50 observed_measurement="> 10000 nM"
molecule="C[C@]12CCC(=O)C=C1CC[C@@H]1[C@@H]2[C@@H](O)C[C@]2(C=O)[C@@H](C(=O)CO)CC[C@@H]12 [Aldosterone, aldosterone]" quantity_name=EC50 observed_measurement="1150 nM"
molecule="C[C@]12C[C@H](O)[C@H]3[C@@H](CCC4=CC(=O)CC[C@@]43C)[C@@H]1CC[C@@H]2C(=O)CO [Corticosterone, corticosterone]" quantity_name=EC50 observed_measurement="269 nM"
molecule="C#C[C@]1(O)CC[C@H]2[C@@H]3CCC4=Cc5oncc5C[C@]4(C)[C@H]3CC[C@@]21C [Danazol, danazol]" quantity_name=EC50 observed_measurement="> 10000 nM"
molecule="CC(=O)C1(O)CCC2C3CCC4=CC(=O)CCC4(C)C3CCC21C (stereo not drawn) [17α-hydroxyprogesterone]" quantity_name=EC50 observed_measurement="> 10000 nM"

Using the record for C[C@]12C=CC(=O)C=C1CC[C@H]1[C@@H]3C[C@@H](O)[C@](O)(C(=O)CO)[C@@]3(C)C[C@H](O)[C@@]12F [Triamcinolone, triamcinolone] , report its EC50.
10.2 nM

Using the record for CCC(=O)[C@@]1(C)CC[C@H]2[C@@H]3CCC4=CC(=O)CCC4=C3CC[C@@]21C [Promegestone (R5020), promegestone] , report its EC50.
> 10000 nM

Using the record for CC/C(=C(\c1ccccc1)c1ccc(OCCN(C)C)cc1)c1ccccc1 [Tamoxifen citrate, tamoxifen citrate] , report its EC50.
> 10000 nM

###

- assayed-system: human ERα (full-length) (Homo sapiens, UniProt P03372, G400V)
- Sequence (P03372 whole entry G400V): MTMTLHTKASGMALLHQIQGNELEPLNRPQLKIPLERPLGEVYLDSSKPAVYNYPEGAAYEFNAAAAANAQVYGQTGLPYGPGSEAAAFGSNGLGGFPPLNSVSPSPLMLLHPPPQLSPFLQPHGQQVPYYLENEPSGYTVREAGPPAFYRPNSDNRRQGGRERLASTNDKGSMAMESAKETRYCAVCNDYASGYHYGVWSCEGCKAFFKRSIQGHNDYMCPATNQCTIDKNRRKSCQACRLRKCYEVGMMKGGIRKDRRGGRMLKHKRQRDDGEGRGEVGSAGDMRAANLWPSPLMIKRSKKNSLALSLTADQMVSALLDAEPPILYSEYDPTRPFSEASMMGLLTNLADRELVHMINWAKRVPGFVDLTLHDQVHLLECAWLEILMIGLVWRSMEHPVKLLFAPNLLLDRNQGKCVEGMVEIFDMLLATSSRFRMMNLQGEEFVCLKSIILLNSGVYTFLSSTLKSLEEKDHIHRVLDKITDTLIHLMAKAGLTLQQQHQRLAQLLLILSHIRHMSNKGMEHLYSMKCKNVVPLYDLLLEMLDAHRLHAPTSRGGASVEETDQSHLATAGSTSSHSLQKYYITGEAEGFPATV
- test-method-notes: U2OS-ERα/3xERE luciferase reporter cell line (full-length receptor)
- Assay type: cell-based
- setup-conditions: Log EC50, agonist mode, ERα/3xERE, 20 h; value is log10 of molar EC50, mean ± SEM
quantity-name: EC50

Using the record for CC(=O)S[C@@H]1CC2=CC(=O)CC[C@]2(C)[C@H]2CC[C@@]3(C)[C@@H](CC[C@@]34CCC(=O)O4)[C@H]12 , report its EC50.
> 10 µM

###

- assayed-system: ERβ-LBD fused to Gal4-DBD (Homo sapiens, UniProt Q92731)
- Construct: region comprising ERβ-LBD and a piece of the hinge region; expressed in transfected cells; host or cells: U2OS
- Sequence (Q92731 264-498 limits assumed): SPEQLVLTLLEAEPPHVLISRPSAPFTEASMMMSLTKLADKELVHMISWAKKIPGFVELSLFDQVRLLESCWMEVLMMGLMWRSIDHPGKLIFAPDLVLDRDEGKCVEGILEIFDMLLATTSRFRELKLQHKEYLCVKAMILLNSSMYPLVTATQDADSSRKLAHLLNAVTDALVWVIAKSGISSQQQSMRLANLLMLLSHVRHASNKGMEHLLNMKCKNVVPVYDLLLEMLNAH
- test-method-notes: U2OS-ERβ-LBD/9xGal4UAS luciferase reporter cell line
- Assay type: cell-based
- setup-conditions: read-out: Log EC50 (converted)
quantity-name: EC50

Solved cases (2 shown):
compound="CC(=O)O[C@]1(C(C)=O)CC[C@H]2[C@@H]3C=C(Cl)C4=CC(=O)[C@@H]5C[C@@H]5[C@]4(C)[C@H]3CC[C@@]21C [Cyproterone acetate, cyproterone acetate]" assayed_system="ERβ-LBD fused to Gal4-DBD (Homo sapiens, UniProt Q92731)" quantity_name=EC50 observed_measurement="> 10 µM"
compound="C[C@]12CCC(=O)C=C1CC[C@@H]1[C@@H]2[C@@H](O)C[C@]2(C=O)[C@@H](C(=O)CO)CC[C@@H]12 [Aldosterone, aldosterone]" assayed_system="ERβ-LBD fused to Gal4-DBD (Homo sapiens, UniProt Q92731)" quantity_name=EC50 observed_measurement="> 10 µM"

Consider the additional compound presented here.
Using the record for C#C[C@]1(O)CC[C@H]2[C@@H]3CCC4=Cc5oncc5C[C@]4(C)[C@H]3CC[C@@]21C [Danazol, danazol] , report its EC50.
> 10 µM

###

- assayed-system: human GR (full-length) (Homo sapiens, UniProt P04150)
- Construct: expression vectors encoding full-length steroid receptors: pcDNA3-hAR and pcDNA3-hGR; host or cells: U2OS
- Sequence (P04150 1-777): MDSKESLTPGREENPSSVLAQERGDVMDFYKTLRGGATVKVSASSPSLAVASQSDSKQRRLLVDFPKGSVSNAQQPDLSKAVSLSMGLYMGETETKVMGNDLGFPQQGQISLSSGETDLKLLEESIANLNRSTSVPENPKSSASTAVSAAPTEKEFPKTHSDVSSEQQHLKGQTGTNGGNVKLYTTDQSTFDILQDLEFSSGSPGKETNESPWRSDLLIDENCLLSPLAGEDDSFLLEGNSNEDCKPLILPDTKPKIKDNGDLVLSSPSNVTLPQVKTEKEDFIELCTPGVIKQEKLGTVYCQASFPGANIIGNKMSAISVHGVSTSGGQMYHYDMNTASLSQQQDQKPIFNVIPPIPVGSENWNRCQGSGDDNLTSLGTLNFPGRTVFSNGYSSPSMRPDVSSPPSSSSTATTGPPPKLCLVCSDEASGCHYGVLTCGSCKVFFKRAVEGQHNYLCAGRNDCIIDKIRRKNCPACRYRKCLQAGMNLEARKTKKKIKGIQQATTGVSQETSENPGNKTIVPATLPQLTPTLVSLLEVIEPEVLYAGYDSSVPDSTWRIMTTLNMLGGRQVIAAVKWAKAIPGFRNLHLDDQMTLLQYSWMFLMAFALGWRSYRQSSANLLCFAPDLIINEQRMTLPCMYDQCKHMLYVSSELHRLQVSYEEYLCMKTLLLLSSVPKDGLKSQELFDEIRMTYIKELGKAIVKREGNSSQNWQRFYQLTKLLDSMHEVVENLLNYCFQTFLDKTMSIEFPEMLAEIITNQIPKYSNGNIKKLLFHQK
- test-method-notes: U2OS-GR/3xGRE luciferase reporter cell line (full-length receptor)
- Format: cell-based
- setup-conditions: read-out: Log EC50 (converted)
Structures can show the parent of a compound that is named as a salt.
EC50 by entry:

molecule=C#C[C@]1(O)CC[C@H]2[C@@H]3CCC4=Cc5oncc5C[C@]4(C)[C@H]3CC[C@@]21C quantity_name=EC50 observed_measurement="> 10000 nM"
molecule="CC/C(=C(\\c1ccccc1)c1ccc(OCCN(C)C)cc1)c1ccccc1 [Tamoxifen citrate, tamoxifen citrate]" quantity_name=EC50 observed_measurement="> 10000 nM"
molecule="CCC(=O)[C@@]1(C)CC[C@H]2[C@@H]3CCC4=CC(=O)CCC4=C3CC[C@@]21C [Promegestone (R5020), promegestone]" quantity_name=EC50 observed_measurement="> 3160 nM"
molecule=C[C@]12C[C@H](O)[C@H]3[C@@H](CCC4=CC(=O)CC[C@@]43C)[C@@H]1CC[C@@H]2C(=O)CO quantity_name=EC50 observed_measurement="5.89 nM"
molecule=C[C@]12CCC(=O)C=C1CC[C@@H]1[C@@H]2[C@@H](O)C[C@]2(C=O)[C@@H](C(=O)CO)CC[C@@H]12 quantity_name=EC50 observed_measurement="30.2 nM"
molecule=CCCc1c(-c2ccc(O)cc2)nn(-c2ccc(O)cc2)c1-c1ccc(O)cc1 quantity_name=EC50 observed_measurement="> 10000 nM"

Using the record for C[C@]12C=CC(=O)C=C1CC[C@H]1[C@@H]3C[C@@H](O)[C@](O)(C(=O)CO)[C@@]3(C)C[C@H](O)[C@@]12F , report its EC50.
4.68 nM

Using the record for CC(=O)C1(O)CCC2C3CCC4=CC(=O)CCC4(C)C3CCC21C (stereo not drawn) [17α-hydroxyprogesterone] , report its EC50.
> 10000 nM
